- System: MS2 coat protein
- assay_remarks: apparent KD of MS2 coat protein, switch OFF state (with FMN for OFF switches, without FMN for ON switches); designed switch direction (-1 OFF switch, 1 ON switch): 1; higher = weaker reporter binding
- test_parameters: FMN input: 0 or 200 uM; Eterna round: R93 (includes R88 designs)
measurement_name: apparent KD of MS2 coat protein
Respond with a number, then the unit of measure.

Consider the worked cases shown below.
biopolymer_sequence | apparent KD of MS2 coat protein
AAGCAACAUGAGGAUCACCCAUGUAGCAGGGUCAGAGGAUAUUUGAUCUUGGCAAGGGUUAAAGAAGGUUGAUAAA [Rianqu] | 140 nM
AAUCCAAAUAGUUAGGAUAUGGGAAUAAAAACAUGAGGAUCACCCAUGUAAUUGAAACAAGUUAACCAGAAGGGACAGGGUGAAA [JR_SS002_Sub210] | 16.6 nM
UACAGACAUGAGGAUCACCCAUGUAGAAUUAUGGGAGGAUAUACAAAGACGAGAGUCAGAGUAGAAGGCCUAGGAC [salish99-ss1-166] | 62.7 nM

apparent KD of MS2 coat protein lookup needed for GGGAGGAAGAGAGAGGAUAUCCAAAGGAAAACAUGAGGAUCACCCAUGUAAAAGGUAGGAAAUUGGGAGAAGGCUCAAGAGACGG [salish99-ss2-053] , thanks.
34.2 nM

What do you have for AAAAGACAUGAGGAUCACCCAUGUGAAAACGUAGGAGGAUAUGUCGUGAAAAAAGACUUGACAGAAGGCCUGUGUC [SS1 - 34] ?
63.5 nM

Please do the same for CAGCGCUGUCGAGAGGAUAUGCGGUGAUGGACAUGAGGAUCACCCAUGUAAGCGAUAGCAUUACGGCAGAAGGCUCUGCAGCUGC [Riaranzaes] as well.
69.6 nM

Note, next up: AGGAGACAUGAGGAUCACCCAUGUGAGAAGAGGCGAGGAUAUCGAAAGAAAGAAGAGAAACGAGAAGGCGCGAGCU [salish99-SS1-024]
29.6 nM

Likewise for AAAAUAAAAAGGUAGGAUAUGGGUAAGUCUACAUGAGGAUCACCCAUGUAAUAAAAAGAAAAAAACCAGAAGGACCAAAAUAAAA [72%, More Wateronthemoon, 11] ?
50.1 nM

Provenance of the data: the supplement of paper PMC9170038
